target: T1, human CCR8 (human, UniProt P51685 1-355); assay: flow blocking, PBMC CCR8+CD3+; competitor PE-AB8
T1 construct: Native CCR8 on human PBMC (CCR8+ CD3+ or CCR8+ CD4+ lymphocytes); also called chemokine (C-C motif) receptor 8
T1 sequence (P51685 whole entry): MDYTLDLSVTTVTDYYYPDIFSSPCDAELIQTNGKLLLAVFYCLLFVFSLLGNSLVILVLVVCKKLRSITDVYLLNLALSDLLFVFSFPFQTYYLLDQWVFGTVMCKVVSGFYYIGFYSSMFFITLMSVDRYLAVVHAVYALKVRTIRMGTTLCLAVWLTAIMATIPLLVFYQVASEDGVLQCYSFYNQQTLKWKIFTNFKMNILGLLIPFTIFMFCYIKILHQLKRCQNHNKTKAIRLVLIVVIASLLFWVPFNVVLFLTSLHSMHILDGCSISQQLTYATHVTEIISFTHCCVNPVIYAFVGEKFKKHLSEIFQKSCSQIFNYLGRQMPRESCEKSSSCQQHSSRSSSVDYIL
observable: % Blocking (%)
Give the number; % is assumed, so skip it.

- AB5 (antibody, V domains shown, Hybridoma monoclonal; Same VH/VL entries as AB6; also called antibody 5; clone 5) VH: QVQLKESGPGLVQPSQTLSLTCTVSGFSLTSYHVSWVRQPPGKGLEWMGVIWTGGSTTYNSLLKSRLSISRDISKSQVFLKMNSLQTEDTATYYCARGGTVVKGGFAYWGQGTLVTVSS VL: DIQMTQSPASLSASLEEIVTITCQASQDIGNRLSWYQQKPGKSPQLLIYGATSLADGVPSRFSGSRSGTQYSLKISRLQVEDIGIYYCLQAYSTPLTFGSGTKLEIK: 5.47

Exercise: Value lookup for % Blocking; key = AB13 (antibody, V domains shown, Hybridoma monoclonal; also called antibody 13; clone 13) VH: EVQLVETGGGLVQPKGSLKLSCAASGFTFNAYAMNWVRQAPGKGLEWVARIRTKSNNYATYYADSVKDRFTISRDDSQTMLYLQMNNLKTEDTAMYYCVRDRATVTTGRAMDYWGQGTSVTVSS VL: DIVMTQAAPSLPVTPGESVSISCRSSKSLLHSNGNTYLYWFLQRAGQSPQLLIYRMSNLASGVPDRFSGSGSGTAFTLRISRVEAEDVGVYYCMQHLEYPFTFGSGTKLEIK
Solution: 44.1

Exercise: Please report the recorded % Blocking for AB6 (antibody, V domains shown, Hybridoma monoclonal; Same VH/VL entries as AB5; also called antibody 6; clone 6) VH: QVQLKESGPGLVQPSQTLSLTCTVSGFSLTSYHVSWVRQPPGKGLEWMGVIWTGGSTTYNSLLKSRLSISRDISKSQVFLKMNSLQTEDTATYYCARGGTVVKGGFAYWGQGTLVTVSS VL: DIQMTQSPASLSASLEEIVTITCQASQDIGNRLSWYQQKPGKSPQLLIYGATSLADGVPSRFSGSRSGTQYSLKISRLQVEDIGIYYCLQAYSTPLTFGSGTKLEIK .
Solution: 33.8
